These data points were gathered from ChEMBL document CHEMBL1909046.

molecular target: Glucocorticoid receptor (Homo sapiens, UniProt P04150); details: hela s3; note: in other assays of this panel Not Active means under 50% inhibition at 10 µM
Sequence (P04150 whole entry): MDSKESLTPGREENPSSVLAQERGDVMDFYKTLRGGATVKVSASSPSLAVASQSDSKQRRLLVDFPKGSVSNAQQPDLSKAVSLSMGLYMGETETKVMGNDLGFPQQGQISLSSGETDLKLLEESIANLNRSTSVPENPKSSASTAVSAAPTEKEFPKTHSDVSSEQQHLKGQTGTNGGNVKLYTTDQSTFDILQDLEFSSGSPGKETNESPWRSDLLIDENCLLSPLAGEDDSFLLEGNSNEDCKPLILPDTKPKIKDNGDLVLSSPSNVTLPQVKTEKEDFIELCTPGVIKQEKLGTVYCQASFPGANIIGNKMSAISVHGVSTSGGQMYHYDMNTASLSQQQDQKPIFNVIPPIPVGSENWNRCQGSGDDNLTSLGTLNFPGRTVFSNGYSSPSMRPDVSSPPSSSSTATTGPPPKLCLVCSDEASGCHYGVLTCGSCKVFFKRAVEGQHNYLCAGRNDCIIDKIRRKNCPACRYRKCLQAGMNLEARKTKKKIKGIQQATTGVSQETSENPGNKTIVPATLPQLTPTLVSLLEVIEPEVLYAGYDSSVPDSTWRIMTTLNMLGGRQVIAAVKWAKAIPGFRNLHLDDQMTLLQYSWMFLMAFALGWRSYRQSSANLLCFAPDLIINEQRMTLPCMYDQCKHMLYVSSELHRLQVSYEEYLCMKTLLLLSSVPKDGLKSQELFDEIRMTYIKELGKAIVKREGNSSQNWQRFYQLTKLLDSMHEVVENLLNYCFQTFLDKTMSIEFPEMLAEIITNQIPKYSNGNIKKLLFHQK
Assay readout: IC50

Examples with answers:
>  <Compound>
NC[C@H]1O[C@H](O[C@H]2[C@H](O)[C@@H](O[C@H]3O[C@H](CO)[C@@H](O)[C@H](N)[C@H]3O)[C@H](N)C[C@@H]2N)[C@H](O)[C@@H](O)[C@@H]1O

>  <System name>
Glucocorticoid receptor (Homo sapiens, UniProt P04150); note: in other assays of this panel Not Active means under 50% inhibition at 10 µM

>  <Assay readout>
IC50

>  <Value observed>
Not Active

$$$$
>  <Compound>
Cc1c(N(C)CS(=O)(=O)[O-])c(=O)n(-c2ccccc2)n1C.[Na+] [DIPYRONE SODIUM]

>  <System name>
Glucocorticoid receptor (Homo sapiens, UniProt P04150); note: in other assays of this panel Not Active means under 50% inhibition at 10 µM

>  <Assay readout>
IC50

>  <Value observed>
Not Active

$$$$
>  <Compound>
C=C(C)[C@H]1Cc2c(ccc3c2O[C@@H]2COc4cc(OC)c(OC)cc4[C@@H]2C3=O)O1

>  <System name>
Glucocorticoid receptor (Homo sapiens, UniProt P04150); note: in other assays of this panel Not Active means under 50% inhibition at 10 µM

>  <Assay readout>
IC50

>  <Value observed>
Not Active

$$$$
>  <Compound>
CN1C(=O)CN=C(c2ccccc2)c2cc(Cl)ccc21

>  <System name>
Glucocorticoid receptor (Homo sapiens, UniProt P04150); note: in other assays of this panel Not Active means under 50% inhibition at 10 µM

>  <Assay readout>
IC50

>  <Value observed>
Not Active

$$$$
>  <Compound>
CC(=O)Nc1nnc(S(N)(=O)=O)s1 [ACETAZOLAMIDE]

>  <System name>
Glucocorticoid receptor (Homo sapiens, UniProt P04150); note: in other assays of this panel Not Active means under 50% inhibition at 10 µM

>  <Assay readout>
IC50

>  <Value observed>
Not Active

$$$$

Short answer for CC(C(=O)O)c1ccc(-c2ccccc2)c(F)c1 (stereo not drawn) : IC50 was Not Active

Short answer for `CC(=O)OCC(CCn1cnc2cnc(N)nc21)COC(C)=O` : IC50 was Not Active

Short answer for `CC(C)(Sc1cc(C(C)(C)C)c(O)c(C(C)(C)C)c1)Sc1cc(C(C)(C)C)c(O)c(C(C)(C)C)c1` : IC50 was Not Active

* * *

target: 5-hydroxytryptamine receptor 6 (Homo sapiens, UniProt P50406); type: cell membranes, HeLa, Membrane; conditions: hela; note: in other assays of this panel Not Active means under 50% inhibition at 10 µM
Sequence (P50406 whole entry): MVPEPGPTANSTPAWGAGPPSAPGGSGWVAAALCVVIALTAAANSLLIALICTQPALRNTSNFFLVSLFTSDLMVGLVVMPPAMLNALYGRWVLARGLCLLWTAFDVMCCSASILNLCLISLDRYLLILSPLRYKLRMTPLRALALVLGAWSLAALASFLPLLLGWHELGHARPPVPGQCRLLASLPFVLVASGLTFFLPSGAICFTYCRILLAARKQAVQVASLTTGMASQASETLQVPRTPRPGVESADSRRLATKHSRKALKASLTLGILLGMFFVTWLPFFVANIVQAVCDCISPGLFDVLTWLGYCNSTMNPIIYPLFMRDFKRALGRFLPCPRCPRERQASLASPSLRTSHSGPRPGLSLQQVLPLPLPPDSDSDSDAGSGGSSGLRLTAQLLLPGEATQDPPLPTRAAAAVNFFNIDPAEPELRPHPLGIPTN
Assay readout: IC50

>  <Compound>
Oc1ccccc1O

>  <System name>
5-hydroxytryptamine receptor 6 (Homo sapiens, UniProt P50406); note: in other assays of this panel Not Active means under 50% inhibition at 10 µM

>  <IC50>
Not Active

$$$$
>  <Compound>
CO[C@H]1[C@@H](O)[C@H](N)[C@@H](O[C@H]2O[C@H]([C@H](C)N)CC[C@H]2N)[C@H](O)[C@@H]1N(C)C(=O)CN

>  <System name>
5-hydroxytryptamine receptor 6 (Homo sapiens, UniProt P50406); note: in other assays of this panel Not Active means under 50% inhibition at 10 µM

>  <IC50>
Not Active

$$$$
>  <Compound>
CCOC(=O)C1=C(C)NC(C)=C(C(=O)OC)C1c1cccc(Cl)c1Cl (centres undefined)

>  <System name>
5-hydroxytryptamine receptor 6 (Homo sapiens, UniProt P50406); note: in other assays of this panel Not Active means under 50% inhibition at 10 µM

>  <IC50>
Not Active

$$$$
>  <Compound>
CNS(=O)(=O)Cc1ccc2[nH]cc(CCN(C)C)c2c1

>  <System name>
5-hydroxytryptamine receptor 6 (Homo sapiens, UniProt P50406); note: in other assays of this panel Not Active means under 50% inhibition at 10 µM

>  <IC50>
Not Active

$$$$
>  <Compound>
CCN(CC)CC#CCOC(=O)C(O)(c1ccccc1)C1CCCCC1 (centres undefined)

>  <System name>
5-hydroxytryptamine receptor 6 (Homo sapiens, UniProt P50406); note: in other assays of this panel Not Active means under 50% inhibition at 10 µM

>  <IC50>
Not Active

$$$$
>  <Compound>
CS(=O)(=O)OCCCCOS(C)(=O)=O

>  <System name>
5-hydroxytryptamine receptor 6 (Homo sapiens, UniProt P50406); note: in other assays of this panel Not Active means under 50% inhibition at 10 µM

>  <IC50>
Not Active

$$$$
>  <Compound>
CC[C@H](C)C(=O)O[C@H]1C[C@H](O)C=C2C=C[C@H](C)[C@H](CC[C@@H](O)C[C@@H](O)CC(=O)O)[C@H]21

>  <System name>
5-hydroxytryptamine receptor 6 (Homo sapiens, UniProt P50406); note: in other assays of this panel Not Active means under 50% inhibition at 10 µM

>  <IC50>
Not Active

$$$$
>  <Compound>
N=C(N)N/N=C/c1c(Cl)cccc1Cl

>  <System name>
5-hydroxytryptamine receptor 6 (Homo sapiens, UniProt P50406); note: in other assays of this panel Not Active means under 50% inhibition at 10 µM

>  <IC50>
Not Active

$$$$
>  <Compound>
CCN[C@@H](C)Cc1cccc(C(F)(F)F)c1

>  <System name>
5-hydroxytryptamine receptor 6 (Homo sapiens, UniProt P50406); note: in other assays of this panel Not Active means under 50% inhibition at 10 µM

>  <IC50>
Not Active

$$$$
>  <Compound>
NC(=O)N1c2ccccc2C=Cc2ccccc21 [CARBAMAZEPINE]

>  <System name>
5-hydroxytryptamine receptor 6 (Homo sapiens, UniProt P50406); note: in other assays of this panel Not Active means under 50% inhibition at 10 µM

>  <IC50>
Not Active

$$$$

Now take the following compound into account.
Short answer for CC(C)OC(=O)C(C)(C)Oc1ccc(C(=O)c2ccc(Cl)cc2)cc1 [FENOFIBRATE] : IC50 was Not Active

* * *

biological target: 5-hydroxytryptamine receptor 1B (Rattus norvegicus); assay type: cell membranes, Wistar, Cerebral cortex, Membrane; note: in other assays of this panel Not Active means under 50% inhibition at 10 µM
Sequence (P28564 whole entry): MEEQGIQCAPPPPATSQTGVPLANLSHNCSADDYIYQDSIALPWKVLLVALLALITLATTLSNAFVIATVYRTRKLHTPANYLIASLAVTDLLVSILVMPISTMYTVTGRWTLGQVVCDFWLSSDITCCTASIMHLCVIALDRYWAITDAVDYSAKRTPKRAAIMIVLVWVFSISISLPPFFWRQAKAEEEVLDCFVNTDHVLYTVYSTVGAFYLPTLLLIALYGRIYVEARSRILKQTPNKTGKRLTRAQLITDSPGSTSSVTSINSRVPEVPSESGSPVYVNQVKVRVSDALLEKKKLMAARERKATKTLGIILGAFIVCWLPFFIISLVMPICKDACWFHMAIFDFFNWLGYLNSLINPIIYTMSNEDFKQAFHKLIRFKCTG
Assay readout: IC50

Examples with answers:
>  <Molecule>
O=c1[nH]c2ccccc2n1CCCN1CCC(n2c(=O)[nH]c3cc(Cl)ccc32)CC1 [DOMPERIDONE]

>  <IC50>
Not Active

$$$$
>  <Molecule>
N=C(N)N/N=C/c1c(Cl)cccc1Cl [GUANABENZ]

>  <IC50>
Not Active

$$$$
>  <Molecule>
CC1=C(CC(=O)O)c2cc(F)ccc2/C1=C\c1ccc(S(C)(=O)=O)cc1 [EXISULIND]

>  <IC50>
Not Active

$$$$
>  <Molecule>
CCN(CC)CC#CCOC(=O)C(O)(c1ccccc1)C1CCCCC1 (configuration not stated) [OXYBUTYNIN]

>  <IC50>
Not Active

$$$$
>  <Molecule>
CN(Cc1cnc2nc(N)nc(N)c2n1)c1ccc(C(=O)N[C@@H](CCC(=O)O)C(=O)O)cc1 [METHOTREXATE]

>  <IC50>
Not Active

$$$$
>  <Molecule>
CN1C(=O)CN=C(c2ccccc2)c2cc(Cl)ccc21 [DIAZEPAM]

>  <IC50>
Not Active

$$$$
>  <Molecule>
CC[C@]1(O)CC[C@H]2[C@@H]3CCC4=CCCC[C@@H]4[C@H]3CC[C@@]21C

>  <IC50>
Not Active

$$$$
>  <Molecule>
CC(C(=O)O)c1ccc(CC2CCCC2=O)cc1 (configuration not stated) [LOXOPROFEN]

>  <IC50>
Not Active

$$$$

Short answer for C[C@@H]1C[C@H]2[C@@H]3CCC4=CC(=O)C=C[C@]4(C)C3=CC[C@]2(C)[C@H]1C(=O)CN1CCN(c2cc(N3CCCC3)nc(N3CCCC3)n2)CC1 [TIRILAZAD] : IC50 was Not Active

Short answer for CCC[C@@H]1C[C@@H](C(=O)N[C@@H]([C@H]2O[C@H](SC)[C@H](O)[C@@H](O)[C@H]2O)[C@H](C)Cl)N(C)C1 [CLINDAMYCIN] : IC50 was Not Active

Short answer for Cc1cnc(C(=O)NCCc2ccc(S(=O)(=O)NC(=O)NC3CCCCC3)cc2)cn1 [GLIPIZIDE] : IC50 was Not Active

Short answer for Cc1cccc(Nc2ccccc2C(=O)O)c1C [MEFENAMIC ACID] : IC50 was Not Active

Short answer for O=C(O)Cc1ccc(-c2ccccc2)cc1 [FELBINAC] : IC50 was Not Active

Short answer for `N[C@@H](Cc1ccc(F)cc1)C(=O)O` : IC50 was Not Active

Short answer for CO[C@H]1C[C@@H]2CC[C@@H](C)[C@@](O)(O2)C(=O)C(=O)N2CCCC[C@H]2C(=O)O[C@H]([C@H](C)C[C@@H]2CC[C@@H](O)[C@H](OC)C2)CC(=O)[C@H](C)/C=C(\C)[C@@H](O)[C@@H](OC)C(=O)[C@H](C)C[C@H](C)/C=C/C=C/C=C/1C [SIROLIMUS] : IC50 was Not Active

Short answer for CC[C@H]1OC(=O)[C@H](C)[C@@H](O[C@H]2C[C@@](C)(OC)[C@@H](O)[C@H](C)O2)[C@H](C)[C@@H](O[C@@H]2O[C@H](C)C[C@H](N(C)C)[C@H]2O)[C@](C)(OC)C[C@@H](C)C(=O)[C@H](C)[C@@H](O)[C@]1(C)O [CLARITHROMYCIN] : IC50 was Not Active

Short answer for C=C(CC)C(=O)c1ccc(OCC(=O)O)c(Cl)c1Cl [ETHACRYNIC ACID] : IC50 was Not Active

Short answer for NC[C@H]1O[C@H](O[C@H]2[C@H](O)[C@@H](O[C@H]3O[C@H](CO)[C@@H](O)[C@H](N)[C@H]3O)[C@H](N)C[C@@H]2N)[C@H](N)C[C@@H]1O [TOBRAMYCIN] : IC50 was Not Active

Short answer for NC(=O)N1c2ccccc2C=Cc2ccccc21 [CARBAMAZEPINE] : IC50 was Not Active

Short answer for Cc1c(F)c(N2CCNC(C)C2)cc2c1c(=O)c(C(=O)O)cn2C1CC1 (configuration not stated) [GREPAFLOXACIN] : IC50 was Not Active

Short answer for `COc1cc(N)nc2[nH]c(-c3ccc(F)cc3)c(-c3ccncc3)c12` : IC50 was Not Active

Short answer for Nc1nc2c(c(=O)[nH]1)N(C=O)C(CNc1ccc(C(=O)N[C@@H](CCC(=O)O)C(=O)O)cc1)CN2 (some centres not stated) [LEUCOVORIN] : IC50 was Not Active

Short answer for Oc1ccccc1O [CATECHOL] : IC50 was Not Active

Short answer for COc1ccc(Cc2nccc3cc(OC)c(OC)cc23)cc1OC [PAPAVERINE] : IC50 was Not Active

Short answer for CO[C@H]1[C@@H](O)[C@H](N)[C@@H](O[C@H]2O[C@H]([C@H](C)N)CC[C@H]2N)[C@H](O)[C@@H]1N(C)C(=O)CN [ASTROMICIN] : IC50 was Not Active

Short answer for CNC(=C[N+](=O)[O-])NCCSCc1csc(CN(C)C)n1 [NIZATIDINE] : IC50 was Not Active

Short answer for CC(CCc1ccc(O)cc1)NCCc1ccc(O)c(O)c1 (configuration not stated) [DOBUTAMINE] : IC50 was Not Active

Short answer for CN[C@@H]1[C@H](O)[C@H](NC)[C@H]2O[C@@]3(O)C(=O)C[C@@H](C)O[C@H]3O[C@@H]2[C@H]1O [SPECTINOMYCIN] : IC50 was Not Active
